Test: Quantitative High-Throughput drug screen in 47 multiple myeloma cell lines against the NCATS MIPE library collection: KMS27_JCRB cell viability assay (AID 1918970); further: nearly all actives have a fitted effect of over 30% in size
Settings: KMS27 myeloma cells, CellTiter-Glo ATP viability, 48 h; series mostly up to 45.8 µM
Inconclusive results are not listed. Active and inactive are the calls of the source. The call rests on the fitted dose curve; in most records, active means well fitted cell-killing curve with a large enough effect; inconclusive means small, poorly fitted or top-dose-only effect, or effect the other way; inactive means no such curve, though single readings can be large or run the other way.
# output must be one of 1 (yes) (active), 0 (no) (inactive)

{"Compound": "O=C(Nc1cc(Cl)cc2c1[nH]c1cnccc12)c1cccnc1", "Assigned class": "0 (no)"}
{"Compound": "CN1CCN(CCOc2cc(OC3CCOCC3)c3c(Nc4c(Cl)ccc5c4OCO5)ncnc3c2)CC1", "Assigned class": "1 (yes)"}
{"Compound": "CC(=NNC(=S)N1CCC1)c1ccccn1", "Assigned class": "1 (yes)"}

Incoming: Could you kindly confirm the outcome this assay logged for NS(=O)(=O)c1ccc(NC2=CC(=O)c3ccccc3C2=O)cc1 ?
Outgoing: 1 (yes)

Incoming: Just curious, what result did Clc1ccc(CCC(Cn2ccnc2)Sc2c(Cl)cccc2Cl)cc1 (stereo not drawn) get here?
Outgoing: 1 (yes)

* * *

Assay: High-throughput drug toxicity screening in the BPDCN cell line Cal-1 (AID 1224825);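 further: cells exposed to compounds for 48 h; 100% = DMSO and 0% = bortezomib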
Conditions: Cal-1 BPDCN cell viability, qHTS; at 45.8 µM (top of the series) unless noted
Text: Blastic plasmacytoid dendritic cell neoplasm (BPDCN) is a rare, aggressive and largely incurable hematologic malignancy originating from plasmacytoid dendritic cells (pDCs). Although an initial response to chemotherapy is common, BPDCN prognosis is extremely poor and most patients relapse with drug-resistant disease leading to a median overall survival of ~1 year after diagnosis. […]
Reported viability (% of control) values are given for each entry in this list.

// solved cases for viability (% of control) follow
{"Molecule": "O=C(O)c1ccc(-c2c[nH]c3ncc(-c4ccccc4)cc23)cc1C1CCCC1", "Value measured": "73.1%"}
{"Molecule": "NS(=O)(=O)c1ccc(NC2=CC(=O)c3ccccc3C2=O)cc1", "Value measured": "88.5%"}
{"Molecule": "COc1cc2ncnc(Nc3ccc(F)c(Cl)c3)c2cc1OCCCN1CCOCC1", "Value measured": "4.41% [at 92.2 µM]"}

Measured viability (% of control), C=CCc1ccc(O)c(-c2ccc(O)c(CC=C)c2)c1 : 21.1%

Notebook: Cc1cc(OCCCc2c(C(=O)O)n(Cc3cccnc3)c3c(-c4c(COc5ccc(N6CCN([S+](C)(=O)[O-])CC6)cc5)nn(C)c4C)cccc23)cc(C)c1Cl , viability (% of control) read as 96.7%

GET /value?item= OC[C@H]1O[C@@H](n2cnc3c2NC=NC[C@@H]3O)C[C@H]1O &field=viability (% of control) returns 109%

* * *

Listing of entries alongside the reported caspase-3 activation.
Test: Cellular Toxicity (caspase-3) H-4-II-E (AID 663);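 further: cells exposed to compound for 16 hr before readout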
Conditions: H-4-II-E rat hepatoma, scaled: DMSO 0%, 100 µM tamoxifen 100%; at 92.2 µM (top of the series)
Records with an inconclusive call do not appear. The source made the active and inactive calls. Calls come from the whole dose curve; as a rule, active = well fitted activation curve with a large enough effect; inconclusive = small, poorly fitted or top-dose-only effect; inactive = flat fitted curve, though single readings scatter.

For orientation, consider the following solved cases.
{"Input smiles": "O=c1c(-c2ccc(O)cc2)coc2cc(O)ccc12", "Value measured": "-2.27% (inactive)"}
{"Input smiles": "O=c1cc(-c2ccc(O)cc2)oc2cc(O)cc(O)c12", "Value measured": "9.21% (inactive)"}
{"Input smiles": "CC1=C(/C=C/C(C)=C/C=C/C(C)=C/C(=O)Nc2ccc(O)cc2)C(C)(C)CCC1", "Value measured": "91.2% (active)"}

The compound identified as CCn1cc(C(=O)O)c(=O)c2ccc(C)nc21 registered its caspase-3 activation at -0.698% (inactive)

# compound CC(=O)c1ccc(S(=O)(=O)NC(=O)NC2CCCCC2)cc1 ; its caspase-3 activation = 1.08% (inactive)

The compound listed as O=C1NC(=O)C(c2ccccc2)(c2ccccc2)N1 has a reported caspase-3 activation of 0.679% (inactive)

// caspase-3 activation lookup, compound = CCCNC(=O)NS(=O)(=O)c1ccc(Cl)cc1 , result: -0.479% (inactive)

So, O=C(O)c1cc(O)c2c(c1)C(=O)c1cccc(O)c1C2=O ? Its caspase-3 activation was 1.57% (inactive)

All figures here come from PubChem BioAssay (NCATS).
